experiment: melting temperature; fluorescence melt of hairpins on a sequencing array, two-state fit, raised by 9.35 °C to match UV melts; settings: sodium 0.088 M
Mark each entry Fulfilled if its Tm sits below 50 °C, and Not fulfilled for all others.

polymer_sequence	cat
GTGCACGAAAGTGCCAC ((((((....))).)))	Not fulfilled

In: Strictly below 50 °C in Tm? GCGATGCGAAAGCAATGC ((..(((....)))..))
Out: Not fulfilled

* * *

assay: folding enthalpy; higher = less favourable; fluorescence melt of hairpins on a sequencing array, two-state fit; conditions: sodium 0.088 M
measured_attribute: folding enthalpy

Examples with their reported folding enthalpy follow.
polymer_sequence	experimental_value
GCCGCTGGAAACAGCAGC ((.((((....)))).))	-20.1 kcal/mol
GAGTTTGGAAACGAATTC ((.((.(....).)).))	-18.4 kcal/mol
GATCACGCCGTGATC ((((((...))))))	-29.8 kcal/mol
GCGGACGAAAGTCTCGC ((((((....))).)))	-18.9 kcal/mol
GGGCGTTCGAAAGAACCC (((..(((....))))))	-19.9 kcal/mol

Let's switch to this sequence now.
In: Would you kindly share the measured folding enthalpy for GCTATCACGAAAGTGAGC (((..(((....)))))) ?
Out: -14.1 kcal/mol
